Values compiled from patent US20170304442A1.

- tgt: T1, recombinant human WISP1/His (human, UniProt O95388 23-367)
- T1 construct: also called hWISP1; recombinant human WISP1 protein; not shown: His tag
- T1 sequence (looked up): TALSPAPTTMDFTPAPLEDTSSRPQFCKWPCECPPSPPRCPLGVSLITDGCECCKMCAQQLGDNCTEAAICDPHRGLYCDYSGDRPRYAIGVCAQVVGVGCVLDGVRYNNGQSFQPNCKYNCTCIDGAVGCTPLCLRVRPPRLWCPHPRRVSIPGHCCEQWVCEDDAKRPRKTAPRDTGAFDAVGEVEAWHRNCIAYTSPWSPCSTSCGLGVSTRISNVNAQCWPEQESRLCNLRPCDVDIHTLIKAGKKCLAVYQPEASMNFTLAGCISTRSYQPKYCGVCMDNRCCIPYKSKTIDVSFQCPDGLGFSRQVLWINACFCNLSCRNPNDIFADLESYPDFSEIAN
- assayMethodText: SPR, IgG captured on anti-human Fc CM5 chip, human WISP1/His as analyte, 1:1 Langmuir fit
recordedMetric: koff (s⁻¹)
Could you give me the number in s⁻¹? Just the number is fine.

Examples from the recorded data:
WIr2D6 (antibody, V domains shown, Tested as IgG (captured by anti-human Fc); also called Wlr2D6) VH: EVQLVQSGAEVKRSGASVKVSCKLSGDTLTDLSIHWVRQAPGKGLEWMGGFDFEDGEIVYGDKFKGRVTVTEDPSTDTAYMDLKRLTFEDTAIYYCATIKDIPGRYYFDFWGQGTLVTVSS VL: VIWMTQSPSSVSASVGDTVTITCRASQGIRSWLAWYQQKPGKAPKLLIYGASSLHSGVPSRFSGSGSGTYFTLTISSLQPEDFATYYCQQADSFPPWTFGQGTKVEIK = 0.0489
WIr2H3 (antibody, V domains shown, Tested as IgG (captured by anti-human Fc); also called Wlr2H3) VH: EVQLVQSGGGMVQPGGSLRLSCAASGFTFSDYYMDWVRQAPGQGLEWVGRIRHKAQGYTTEYAASVKGRFSISRDDSRSSLSLQMNSLKTEDTAVYYCAMVGGSRDWGQGTLVTVSS VL: QAGLTQPPSVSGAPGQRVTISCTGGSSNIGPGYAVHWYQQHPGRAPKLLIYTNNNRPSGVPDRFSGSRSGTSASLAITGLQAEDDAYYYCQSYDSSLSGSVFGGGTKLTVL = 0.00897
WIr2F6 (antibody, V domains shown, Tested as IgG (captured by anti-human Fc); also called Wlr2F6) VH: QMQLVQSGAEVKRPGASVKVSCKASGYSFTNFDINWVRQATGQGLEWMGWMDPNSGNSGSAPAFQGRVTMTRDTSIGTAYMELSGLTSEDTAVYYCARDDFYDSSGFDAWGQGTLVTVSS VL: QSVLTQPPSASGTPGQTVTVSCSGRSSNVGSNTVDWYQHLPGTAPKLLIYSSNRRPSGVPDRFSGSKSGTSASLAISGLQSEDEADYYCAAWDDSLNVYVFGTGTKLTVL = 0.00559

Query: GET /values?readout=koff&item= WIr2C11 (antibody, V domains shown, Tested as IgG (captured by anti-human Fc); also called Wlr2C11) VH: QVQLVESGGALVQPGGSLRLSCAASGFTFSDHWLSWVRQAPGKGLEWVSSISSSSRYIHYADSVKGRFTISRDNAKNSLYLQMNSLSAEDTAVYYCAREDTSMATNGFDVWGQGTMVTVSS VL: AIQLTQSPSSLSASVGDRVTITCRASQGIRNHLGWYQQKPGKAPKRLIYAASSLQSGVPSRFSGSGSGTEFTLTISGLQPEDFATYYCLQHNSYPFTFGQGTRLEIK
Reply: 0.0219
